target: S1P1 (Homo sapiens, UniProt P21453); experiment: Tango β-arrestin Recruitment Assay in HEK293 cells (Assay 2a); format: cell-based; parameters: linker with TEV protease (N1a) cleavage site (C); host or cells: HEK293, transiently transfected; conditions: Tango β-arrestin Recruitment Assay, read-out: Assay 2a EC50
Sequence (P21453 whole entry): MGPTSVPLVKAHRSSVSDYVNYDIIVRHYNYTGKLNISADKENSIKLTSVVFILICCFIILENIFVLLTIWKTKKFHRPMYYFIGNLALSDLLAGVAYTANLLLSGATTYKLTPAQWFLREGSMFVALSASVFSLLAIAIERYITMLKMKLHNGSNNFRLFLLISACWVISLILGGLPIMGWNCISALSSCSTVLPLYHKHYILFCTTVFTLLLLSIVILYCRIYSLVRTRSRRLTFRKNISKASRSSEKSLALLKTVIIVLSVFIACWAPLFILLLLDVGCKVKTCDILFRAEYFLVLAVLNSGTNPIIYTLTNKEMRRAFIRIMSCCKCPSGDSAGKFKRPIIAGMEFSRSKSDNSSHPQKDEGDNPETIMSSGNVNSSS
Sequence (P32121 whole entry partner): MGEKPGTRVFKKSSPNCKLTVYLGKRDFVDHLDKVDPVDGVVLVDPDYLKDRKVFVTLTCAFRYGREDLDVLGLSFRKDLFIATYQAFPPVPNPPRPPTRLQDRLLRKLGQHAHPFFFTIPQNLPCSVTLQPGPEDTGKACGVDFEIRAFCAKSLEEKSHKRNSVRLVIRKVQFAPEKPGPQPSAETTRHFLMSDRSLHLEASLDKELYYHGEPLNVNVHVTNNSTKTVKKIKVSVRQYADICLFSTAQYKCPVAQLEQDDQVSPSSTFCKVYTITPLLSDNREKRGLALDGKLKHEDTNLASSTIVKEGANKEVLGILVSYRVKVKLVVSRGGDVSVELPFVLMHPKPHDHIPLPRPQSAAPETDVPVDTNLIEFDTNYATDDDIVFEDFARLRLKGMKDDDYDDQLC
pEC50: −log10 of the molar value.
Reported pEC50 values for a set of compounds

Solved cases below.
compound: CC(Cc1ccc(-c2noc(-c3cn4cc(C(F)(F)F)cc(Cl)c4n3)n2)c(Cl)c1)C(=O)O (centres unmarked)
pEC50: 6.30 to 7.00
--
compound: CC(CC(=O)O)c1ccc(-c2noc(-c3cn4cc(C(F)(F)F)cc(Cl)c4n3)n2)c(Cl)c1 (centres unmarked)
pEC50: 6.30 to 7.00
--
compound: NC(CO)COc1ccc(-c2noc(-c3cn4cc(C(F)(F)F)cc(Cl)c4n3)n2)c(Cl)c1 (centres unmarked)
pEC50: ≥ 7.00
--
compound: Oc1cc(Cl)c(-c2noc(-c3cn4cc(C(F)(F)F)cc(Cl)c4n3)n2)cc1Cl
pEC50: ≥ 7.00
--
compound: OC(CF)COc1cc(Cl)c(-c2noc(-c3cn4cc(C(F)(F)F)cc(Br)c4n3)n2)cc1Cl (centres unmarked)
pEC50: ≥ 7.00
--
compound: OCC(O)COc1cc(Cl)c(-c2noc(-c3cn4cc(C(F)(F)F)cc(Br)c4n3)n2)cc1Cl (centres unmarked)
pEC50: ≥ 7.00
--
compound: C[C@H](O)COc1cc(Cl)c(-c2noc(-c3cn4cc(C(F)(F)F)cc(Br)c4n3)n2)cc1Cl
pEC50: ≥ 7.00
--
compound: CC(=O)COc1cc(Cl)c(-c2noc(-c3cn4cc(C(F)(F)F)cc(Cl)c4n3)n2)cc1Cl
pEC50: ≥ 7.00

**Query** Supply recorded pEC50 for O=C(O)CCc1ccc(-c2noc(-c3cn4cc(C(F)(F)F)cc(Cl)c4n3)n2)cc1Cl here.
**Result** ≥ 7.00

**Query** Please supply the value of reported pEC50 for the item OC[C@H](O)COc1cc(Cl)c(-c2noc(-c3cn4cc(C(F)(F)F)cc(Br)c4n3)n2)cc1Cl
**Result** ≥ 7.00

**Query** Provide one value: measured pEC50 of C[C@@H](COc1cc(Cl)c(-c2noc(-c3cn4cc(C(F)(F)F)cc(Cl)c4n3)n2)cc1Cl)OS(=O)(=O)O
**Result** ≥ 7.00

**Query** Tell me measured pEC50 for OCC(CO)COc1cc(Cl)c(-c2noc(-c3cn4cc(C(F)(F)F)cc(Cl)c4n3)n2)cc1Cl please.
**Result** ≥ 7.00

**Query** // fetch pEC50 given entry C[C@@H](O)COc1cc(Cl)c(-c2noc(-c3cn4cc(C(F)(F)F)cc(Br)c4n3)n2)cc1Cl
**Result** ≥ 7.00

**Query** Provide pEC50 value for the following compound: Cc1cc(C2CC2C(=O)O)ccc1-c1noc(-c2cn3cc(C(F)(F)F)cc(Cl)c3n2)n1 (centres unmarked)
**Result** 6.30 to 7.00

###

The compounds listed here are annotated with their EC50.
Biological target: S1P1 (Homo sapiens)
Experiment: Tango β-arrestin Recruitment Assay in HEK293 cells (Assay 2a)
Type: cell-based
Set-up: linker with TEV protease (N1a) cleavage site (C); host or cells: HEK293, transiently transfected
Conditions: Tango β-arrestin Recruitment Assay, read-out: Assay 2a EC50
Method: For the Tango™ β-arrestin recruitment assay, the cytoplasmic C-terminus of S1P1 is tethered to the tTA transcriptional activator with a linker that contains a cleavage site for the N1a protease from tobacco etch virus (TEV protease). The C-terminus of the human β-arrestin2 protein is fused to TEV protease. […] Assay 1 is the CNG cAMP Assay as described in Biological Example 1. […] EC50's were measured unless otherwise noted. […]

compound: COCCOc1cc(Cl)c(-c2noc(-c3cn4cc(C(F)(F)F)cc(Cl)c4n3)n2)cc1Cl [Entry 76]
result: ≤ 100 nM

compound: O=C(O)CCc1cc(Cl)c(-c2noc(-c3cn4cc(C(F)(F)F)cc(Cl)c4n3)n2)cc1Cl [Example 242]
result: ≤ 100 nM

compound: O=C(O)CCc1c(Cl)cc(-c2nc(-c3cn4cc(C(F)(F)F)cc(Cl)c4n3)no2)cc1Cl [Example 314]
result: ≤ 100 nM

compound: Cc1cc(CCC(=O)O)ccc1-c1noc(-c2cn3cc(C(F)(F)F)cc(Cl)c3n2)n1 [Entry 2]
result: ≤ 100 nM

compound: Cc1cc(C#N)c2nc(-c3nc(-c4cc(F)c(CCC(=O)O)cc4Cl)no3)cn2c1 [Example 160]
result: 100 to 500 nM

compound: OCCOc1c(Cl)cc(-c2noc(-c3cn4cc(C(F)(F)F)cc(Cl)c4n3)n2)cc1Cl [Example 280]
result: ≤ 100 nM

**Query** Using the record for Cc1cc(CC(C)C(=O)O)ccc1-c1noc(-c2cn3cc(C(F)(F)F)cc(Cl)c3n2)n1 (stereo not shown) [Example 180] , state its measured EC50.
**Result** 100 to 500 nM

**Query** Note down EC50 recorded for CC(O)(CO)COc1cc(Cl)c(-c2noc(-c3cn4cc(C(F)(F)F)cc(Cl)c4n3)n2)cc1Cl (stereo not shown) [Example 330]
**Result** ≤ 100 nM

**Query** Give recorded EC50. O=C(O)CCc1cc(Cl)c(-c2nc(-c3cn4cc(I)cc(Cl)c4n3)no2)cc1F [Example 240]
**Result** ≤ 100 nM

**Query** Identify the reported EC50 for the following entry. Cc1cc(-c2noc(-c3cn4cc(C(F)(F)F)cc(Cl)c4n3)n2)cc(C)c1OCC(O)CO (stereo not shown) [Example 161]
**Result** ≤ 100 nM

**Query** Check the records and state EC50 for O=C(O)C1CN(Cc2ccc(-c3noc(-c4cn5cc(C(F)(F)F)cc(Br)c5n4)n3)c(Cl)c2)C1 [Example 132]
**Result** 100 to 500 nM

**Query** Annotate the compound C[C@H](CO)Oc1cc(Cl)c(-c2noc(-c3cn4cc(C(F)(F)F)cc(Cl)c4n3)n2)cc1F [Example 93] with its measured EC50.
**Result** ≤ 100 nM

**Query** For the compound CC(Cc1cc(Cl)c(-c2nnc(-c3cn4cc(C(F)(F)F)cc(Cl)c4n3)s2)cc1Cl)C(=O)O (stereo not shown) [Example 285] , give its measured EC50 value.
**Result** ≤ 100 nM

**Query** Indicate its recorded EC50; the compound in question is O=C(O)CCc1cc(F)c(-c2noc(-c3cn4cc(C(F)(F)F)cc(Cl)c4n3)n2)c(F)c1 [Entry 10]
**Result** 100 to 500 nM

**Query** Report EC50 for OCC(O)COc1c(Cl)cc(-c2noc(-c3cn4cc(C(F)(F)F)cc(Cl)c4n3)n2)cc1Cl (stereo not shown) [Example 209]
**Result** ≤ 100 nM

###

target: S1P1 (Homo sapiens); assay: CNG cAMP Assay (Assay 1); assay type: cell-based; parameters: host or cells: HEK293 cells expressing the CNG channel; details: read-out: Assay 1 EC50
Sequence (P21453 whole entry): as the sequence (P21453 whole entry) above
pEC50: −log10 of the molar value.
measurement-name: pEC50

In the examples that follow, each entry is paired with its recorded pEC50.
compound: Fc1ccc(-c2nc(-c3cn4cc(C(F)(F)F)cc(Cl)c4n3)no2)c(Cl)c1
pEC50: 6.30 to 7.00
//
compound: Cc1cc(-c2noc(-c3cn4cc(C(F)(F)F)cc(Cl)c4n3)n2)ccc1NS(C)(=O)=O
pEC50: ≥ 7.00
//
compound: FC(F)(F)c1cc(Cl)c2nc(-c3nnc(-c4ccccc4Cl)o3)cn2c1
pEC50: ≥ 7.00
//
compound: CC(Cc1ccc(-c2noc(-c3cn4cc(C(F)(F)F)cc(Br)c4n3)n2)c(Cl)c1)C(=O)O (stereo not shown)
pEC50: ≥ 7.00

**Query** Specify measured pEC50 for NC(Cc1ccc(-c2noc(-c3cn4cc(C(F)(F)F)cc(Cl)c4n3)n2)c(Cl)c1)C(=O)O (stereo not shown) .
**Result** 6.30 to 7.00

**Query** State, in one line, measured pEC50 of OC[C@@H]1C[C@H](Oc2ccc(-c3noc(-c4cn5cc(C(F)(F)F)cc(Cl)c5n4)n3)c(Cl)c2)CN1
**Result** ≥ 7.00

**Query** For the compound Cc1cc(CCC(=O)O)ccc1-c1noc(-c2cn3cc(C(F)(F)F)cc(Cl)c3n2)n1 , give its reported pEC50.
**Result** ≥ 7.00

###

List of EC50 values.
Target: S1P1 (Homo sapiens, UniProt P21453)
Assay: CNG cAMP Assay (Assay 1)
Assay type: cell-based
Parameters: host or cells: HEK293 cells expressing the CNG channel
Settings: read-out: Assay 1 EC50
Experimental: Frozen HEK293 cells expressing the CNG channel and S1P1 (BD Biosciences, San Jose, Calif.) were thawed and plated into the wells of a black, clear bottom, 384-well CellBind plate (Corning, Corning, N.Y.) at 14,000 cells per well. […] Test compounds were tested at maximum concentrations of 10 μM. […] The T90/T0 ratio was determined for each concentration of the test compounds. The percent agonist activity was determined as [(test compound−DMSO alone control)/(NECA alone control−DMSO alone control)*100]. […]

molecule: CC(CO)Oc1ccc(-c2noc(-c3cn4cc(C(F)(F)F)cc(Cl)c4n3)n2)c(Cl)c1 (stereo not shown)
EC50: ≤ 0.1 µM
//
molecule: O=C(O)CN1CCC(Oc2cc(Cl)c(-c3noc(-c4cn5cc(C(F)(F)F)cc(Cl)c5n4)n3)cc2F)C1 (stereo not shown)
EC50: ≤ 0.1 µM
//
molecule: OCCCOc1ccc(-c2noc(-c3cn4cc(C(F)(F)F)cc(Cl)c4n3)n2)c(Cl)c1
EC50: 0.1 to 0.5 µM

Next item in the queue.
**Query** Consider the molecule Fc1cc(-c2noc(-c3cn4cc(C(F)(F)F)cc(Cl)c4n3)n2)c(Cl)cc1OC1CCNC1 (stereo not shown) and give its recorded EC50.
**Result** ≤ 0.1 µM
